# Tested on: VEEV TC83
# experiment-summary: microbe, parasite or virus in culture
# Assay type: cell-based
# condition-context: Venezuelan equine encephalitis virus, Vero 76, 48 h, read-out: VEEV TC83 EC50 nM
Consider the following compounds; for each one, report its EC50.

q: # get_value(readout='EC50', item= COc1ccc(-n2c([C@H]3CCCN3)nc3c(-c4ccc(F)nc4)cc([N+](=O)[O-])cc3c2=O)cc1F )
a: 1 to 50 nM

q: # get_value(readout='EC50', item= COc1ccc(-n2c(C3CCCN3)nc3c(-c4ccc(N5CCCC5)nc4)cc(C#N)cc3c2=O)cc1F (stereo not shown) )
a: 1 to 50 nM

q: # get_value(readout='EC50', item= COc1ccc(-n2c([C@@H]3CCCN3)nc3c(C)cc([N+](=O)[O-])cc3c2=O)cc1F )
a: 151 to 500 nM

q: # get_value(readout='EC50', item= COc1ccc(-n2c(C3CCCN3)nc3c(-c4ccc(O)cc4)cc(C#N)cc3c2=O)cc1F (stereo not shown) )
a: 501 to 1000 nM

q: # get_value(readout='EC50', item= COc1ccc(-n2c([C@H]3CCNC3)nc3c(C)cc([N+](=O)[O-])cc3c2=O)cc1F )
a: 51 to 150 nM

q: # get_value(readout='EC50', item= COc1c(F)cc(-n2c(C3CCNC3)nc3c(-c4ccc(C)nc4)cc(C#N)cc3c2=O)cc1F (stereo not shown) )
a: 1 to 50 nM

q: # get_value(readout='EC50', item= COc1ccc(-n2c([C@H]3CC(=O)CN3)nc3c(-c4ccc(C)nc4)cc(C#N)cc3c2=O)cc1F )
a: 151 to 500 nM
